Reported IC50 values follow for various compounds
assay_target: IRAK-4 (Homo sapiens (Human))
Sequence (Q9NWZ3 whole entry, species assumed): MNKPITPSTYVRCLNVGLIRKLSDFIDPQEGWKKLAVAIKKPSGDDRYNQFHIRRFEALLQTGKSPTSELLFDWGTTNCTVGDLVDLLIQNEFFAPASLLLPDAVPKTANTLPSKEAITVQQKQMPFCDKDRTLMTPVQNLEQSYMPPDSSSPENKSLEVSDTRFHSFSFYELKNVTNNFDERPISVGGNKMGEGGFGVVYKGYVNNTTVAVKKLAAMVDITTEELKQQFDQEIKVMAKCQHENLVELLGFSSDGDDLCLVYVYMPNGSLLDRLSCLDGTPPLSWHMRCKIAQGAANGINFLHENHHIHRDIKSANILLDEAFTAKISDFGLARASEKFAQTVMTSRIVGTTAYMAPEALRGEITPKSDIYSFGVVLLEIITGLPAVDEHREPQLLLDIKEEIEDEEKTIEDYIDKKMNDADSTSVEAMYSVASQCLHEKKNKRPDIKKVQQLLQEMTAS
protocol_notes: In vitro IRAK-4 kinase assay
condition: purified recombinant IRAK-4, 50 uM ATP, 33P peptide phosphorylation
Counter-ions that a name gives are not always drawn.
Report the figure in nM without appending any unit label.

| compound | assay_target | value_units | IC50 |
| --- | --- | --- | --- |
| COc1cc(C(N)=O)ccc1NC(=O)c1cnn2cccnc12 | IRAK-4 (Homo sapiens (Human)) | nM | 2260 |
| O=C(Nc1cc(Cl)ccc1N1CCC(O)CC1)c1cnn2cccnc12 | IRAK-4 (Homo sapiens (Human)) | nM | 136 |
| COc1ccccc1NC(=O)c1csc2cncnc12 | IRAK-4 (Homo sapiens (Human)) | nM | 6560 |
| CCc1ccc(OC)c(NC(=O)c2cnn3cccnc23)c1 | IRAK-4 (Homo sapiens (Human)) | nM | 5880 |
| COc1ccccc1NC(=O)c1cnn2cccnc12 | IRAK-4 (Homo sapiens (Human)) | nM | 7340 |

Enquiry: Give IC50 for `O=C(Nc1cc(Cl)ccc1Oc1ccc(O)cc1)c1cnn2cccnc12`
Return: 2220

Enquiry: Consider the compound `CC(C)Oc1ccc(Cl)cc1NC(=O)c1csc2cncnc12` . State its measured IC50.
Return: 290

Enquiry: Given `O=C(Nc1cc(Cl)ccc1OC(F)F)c1cnn2cccnc12` , respond with its IC50.
Return: 717

Enquiry: Find the measured IC50 of `COc1cc2ncccc2cc1NC(=O)c1cnn2cccnc12` and report it.
Return: 43

Enquiry: Give IC50 for O=C(Nc1cc(Cl)ccc1OC1CCC(CO)C1)c1cnn2cccnc12 (stereo not shown)
Return: 306

Enquiry: Specify IC50 for O=C(Nc1cc(Cl)ccc1OC1CCC(O)CC1)c1cnn2cccnc12 (stereo not shown) and stop.
Return: 459

Enquiry: Look up and report measured IC50 for this entry: `COc1cc2ncccc2cc1NC(=O)c1csc2cc(CO)cnc12`
Return: 35

Enquiry: Kindly indicate its recorded IC50. Item: O=C(Nc1cc(Cl)ccc1OC1CCC(O)CC1)c1cnn2cc(CCO)cnc12 (stereo not shown)
Return: 3040

Enquiry: Identify the reported IC50 for the following entry. `NCC1CCN(c2c(N)cccc2NC(=O)c2cnn3cccnc23)CC1`
Return: 133

Enquiry: Supply reported IC50 belonging to this compound: COc1cc2ncccc2cc1NC(=O)c1csc2cnc(NCC(O)CO)nc12 (stereo not shown)
Return: 82

Enquiry: Please report IC50 for the following compound: `O=C(Nc1cc2ccccc2cc1OCCCO)c1cnn2cccnc12`
Return: 327

Enquiry: Identify measured IC50 associated with `COc1ccc(C)cc1NC(=O)c1cnn2cccnc12`
Return: 3770

Enquiry: Quote IC50 reported for `COc1cc2ncccc2cc1NC(=O)c1csc2cnc(NCCCN)nc12` please.
Return: 101

Enquiry: Give the reported IC50 for this compound. `CC(C)COc1ccc(Cl)cc1NC(=O)c1cnn2cccnc12`
Return: 2280

Enquiry: Please supply the value of reported IC50 for the item O=C(Nc1cc(Cl)ccc1OC1CCCC(O)C1)c1cnn2cccnc12 (stereo not shown)
Return: 605

Enquiry: Consider the compound O=C(Nc1cc(Cl)ccc1OC1CCNCC1)c1cnn2cccnc12 [Example 92, hydrochloride] . State its measured IC50.
Return: 476

Enquiry: Consider the compound `COc1cc(C(=O)Nc2ccccc2)c(Cl)cc1NC(=O)c1cnn2cccnc12` . State its measured IC50.
Return: 7920

Enquiry: Please give measured IC50 of the following entry: `CSc1ccc(Cl)cc1NC(=O)c1cnn2cccnc12`
Return: 798

Enquiry: Return value of IC50 for input `O=C(Nc1cc(Cl)ccc1CCCCO)c1cnn2cccnc12` , no commentary.
Return: 2950

Enquiry: For the compound NCC1CCN(c2ccc(Cl)cc2NC(=O)c2cnn3cccnc23)C1 (stereo not shown) , report IC50.
Return: 564

Enquiry: Look up and report measured IC50 for this entry: `O=C(Nc1cc(Cl)ccc1Oc1ccccc1)c1cnn2cccnc12`
Return: 4650

Enquiry: Using known records, supply IC50 for `O=C(Nc1cc(CO)ccc1N1CCCCC1)c1cnn2cccnc12`
Return: 199
